B1: glmS ribozyme (parent)
chain: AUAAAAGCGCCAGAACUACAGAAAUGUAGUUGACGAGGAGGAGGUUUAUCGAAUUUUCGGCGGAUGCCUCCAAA

variants of: B1; assay: self-cleavage kobs at 10000 uM GlcN6P; higher = faster cleavage; RNA array; conditions: with glucosamine-6-phosphate
This sample holds only a part of the variants without activity.
This listing pairs variants with measured self-cleavage kobs at 10000 uM GlcN6P.
metric_name: self-cleavage kobs at 10000 uM GlcN6P (s⁻¹)

• A48C C70U = 0.000401
• A53G C67A C70U = 0.00035
• A15C G32U = 0.000731
• G29U C68U = 0.000719
• U30C C71A = 8.36e-05
• A53G A64G = 0.0493
